# credit: patent US6630612B2

# target-entity: 5-HT3 receptor (Mus musculus)
# Sequence (P23979 24-489): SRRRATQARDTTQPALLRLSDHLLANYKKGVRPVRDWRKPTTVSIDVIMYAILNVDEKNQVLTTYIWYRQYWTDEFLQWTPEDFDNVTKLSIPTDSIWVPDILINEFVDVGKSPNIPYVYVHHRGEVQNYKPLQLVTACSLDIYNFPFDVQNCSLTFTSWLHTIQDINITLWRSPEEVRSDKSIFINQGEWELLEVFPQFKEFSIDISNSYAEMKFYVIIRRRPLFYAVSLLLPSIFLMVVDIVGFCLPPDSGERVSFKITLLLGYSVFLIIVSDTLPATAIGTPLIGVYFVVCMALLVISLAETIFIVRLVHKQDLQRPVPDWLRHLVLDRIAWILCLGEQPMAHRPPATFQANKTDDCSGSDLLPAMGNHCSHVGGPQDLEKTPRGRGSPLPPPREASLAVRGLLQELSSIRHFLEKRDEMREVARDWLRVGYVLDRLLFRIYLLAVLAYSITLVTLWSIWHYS
quantity-kind: Kd (nM)

smiles-representation: Cc1[nH]cnc1CCC(=O)c1cn(C)c2ccccc12
measured: 1.7

---

# target-entity: 5-HT3 receptor
# measurement-description: Homogenate saturation binding with 3H-GR65630 in cortical membranes of transgenic and B6SJL/F1 control mice
# experimental-setup: cortical membranes, B6SJL/F1 control mice, n=3 (FIG. 2 legend, unit inferred)

compound: Cc1[nH]cnc1CCC(=O)c1cn(C)c2ccccc12 [^3H-GR65630]
target-entity: 5-HT3 receptor
Kd: 1.6 nM
